Kindly supply the reported caspase 0.3 μM values for the records listed here.
System: Caspase 3
TEST_METHOD_NOTES: Caspase 3 detection assay in SJSA1 cells
Format: cell-based
TEST_PARAMETERS: 0.3 μM, SJSA1, 48 h, Caspase 3 activation over DMSO-treated cells
Bridge positions count the residues as written; N and C are the ends. Square brackets hold non-standard residues; d marks the D form. Peptide text beside a SMILES is read from it. Trp(6-Cl) = N[C@@H](Cc1c[nH]c2cc(Cl)ccc12)C(=O)O; R8 = C=CCCCCCC[C@@](C)(N)C(=O)O; Cba = N[C@@H](CC1CCC1)C(=O)O; S5 = C=CCCC[C@](C)(N)C(=O)O; Nle = CCCC[C@H](N)C(=O)O
Answer field: number only, no words.

Prompt line: Field: caspase 0.3 μM (Caspase 3). Entry: CC(=O)N[C@@H](CC(C)C)C(=O)N[C@H](C(=O)N[C@@H](Cc1ccccc1)C(=O)N[C@]1(C)CCCCCC/C=C/CCC[C@@](C)(C(=O)N[C@@H](CO)C(=O)N[C@@H](C)C(=O)N[C@@H](C)C(N)=O)NC(=O)[C@H](CC(C)C)NC(=O)[C@H](CCC(N)=O)NC(=O)[C@H](C)NC(=O)[C@H](Cc2c[nH]c3cc(Cl)ccc23)NC(=O)[C@H](Cc2ccc(O)cc2)NC(=O)[C@H](C)NC1=O)[C@@H](C)O [compound 99] (Ac-LTF[R8]AY[Trp(6-Cl)]AQL[S5]SAA-NH2; staple (E) 4-11)
Response line: 1

Prompt line: What value of caspase 0.3 μM on Caspase 3 does CC(=O)N[C@@H](CC(C)C)C(=O)N[C@H](C(=O)N[C@@H](Cc1ccccc1)C(=O)N[C@]1(C)CCCCCCC=CCCC[C@@](C)(C(=O)N[C@@H](C)C(=O)N[C@@H](C)C(=O)N[C@@H](C)C(=O)N[C@@H](C)C(=O)N[C@@H](C)C(=O)N[C@H](C)C(N)=O)NC(=O)[C@H](CC2CCC2)NC(=O)[C@H](CCC(N)=O)NC(=O)[C@H](C)NC(=O)[C@H](Cc2c[nH]c3ccccc23)NC(=O)[C@H](Cc2ccc(O)cc2)NC(=O)[C@H](CCC(=O)O)NC1=O)[C@@H](C)O (single isomer, unassigned) [compound 347] have?
Response line: 2

Prompt line: Entry CC(=O)N[C@@H](CC(C)C)C(=O)N[C@H](C(=O)N[C@@H](Cc1ccccc1)C(=O)N[C@]1(C)CCCCCCC=CCCC[C@@](C)(C(=O)N[C@@H](CO)C(=O)N[C@@H](C)C(=O)N[C@@H](C)C(=O)N[C@H](C)C(N)=O)NC(=O)[C@H](CC2CCC2)NC(=O)[C@H](CCC(N)=O)NC(=O)[C@H](C)NC(=O)[C@H](Cc2c[nH]c3ccccc23)NC(=O)[C@H](Cc2ccc(O)cc2)NC(=O)[C@H](CCC(=O)O)NC1=O)[C@@H](C)O (single isomer, unassigned) [compound 353] , system Caspase 3: what caspase 0.3 μM was measured?
Response line: 1

Prompt line: Given the entry CCCC[C@H](NC(=O)[C@H](C)NC(=O)[C@H](CO)NC(=O)[C@]1(C)CCCC=CCCCCCC[C@@](C)(NC(=O)[C@H](Cc2ccccc2)NC(=O)[C@@H](NC(=O)[C@H](CC(C)C)NC(C)=O)[C@@H](C)O)C(=O)N[C@@H](CCC(=O)O)C(=O)N[C@@H](Cc2ccc(O)cc2)C(=O)N[C@@H](Cc2c[nH]c3ccccc23)C(=O)N[C@@H](CO)C(=O)N[C@@H](CCC(N)=O)C(=O)N[C@@H](CC2CCC2)C(=O)N1)C(=O)N[C@@H](C)C(N)=O [compound 245] (Ac-LTF[R8]EYWSQ[Cba][S5]SA[Nle]A-NH2; staple 4-11) , what caspase 0.3 μM was observed with Caspase 3?
Response line: 1
